assayed-target: human Smoothened receptor (Homo sapiens, UniProt Q99835)
Construct: expressed in transfected cells
Sequence (Q99835 28-787): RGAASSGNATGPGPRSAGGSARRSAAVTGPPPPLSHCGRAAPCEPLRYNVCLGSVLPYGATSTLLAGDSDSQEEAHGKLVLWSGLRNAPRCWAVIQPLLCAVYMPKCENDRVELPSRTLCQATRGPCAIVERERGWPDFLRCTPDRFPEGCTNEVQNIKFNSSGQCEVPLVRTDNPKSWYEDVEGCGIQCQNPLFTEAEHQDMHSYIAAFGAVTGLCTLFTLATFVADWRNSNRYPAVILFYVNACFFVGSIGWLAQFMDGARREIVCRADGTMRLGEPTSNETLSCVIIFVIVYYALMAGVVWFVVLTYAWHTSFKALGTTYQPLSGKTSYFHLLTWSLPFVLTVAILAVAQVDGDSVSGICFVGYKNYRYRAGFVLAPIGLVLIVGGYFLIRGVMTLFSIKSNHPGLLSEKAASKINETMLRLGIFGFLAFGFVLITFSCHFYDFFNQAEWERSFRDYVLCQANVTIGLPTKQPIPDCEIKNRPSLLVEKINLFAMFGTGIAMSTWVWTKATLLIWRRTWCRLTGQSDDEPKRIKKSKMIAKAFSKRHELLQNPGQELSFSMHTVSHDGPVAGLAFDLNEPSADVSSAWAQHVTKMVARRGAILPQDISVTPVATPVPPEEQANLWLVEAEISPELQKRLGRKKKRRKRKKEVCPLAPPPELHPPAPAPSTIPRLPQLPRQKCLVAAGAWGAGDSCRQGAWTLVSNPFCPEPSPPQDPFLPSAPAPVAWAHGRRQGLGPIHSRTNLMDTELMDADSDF
test: Inhibition of binding of 3H-(7d) to membranes of HEK-hSmo cells
condition-summary: HEK-hSmo membranes, agonists (FIG. 5); read-out: IC50, binding of compound 3H-(7d), unit inferred
pIC50: −log10 of the molar value.
measured-parameter: pIC50

(Q) Please give the measured pIC50 for this compound: c1ccc2c(Oc3nc(Nc4ccc(N5CCOCC5)cc4)c4ncn(C5CCCCC5)c4n3)cccc2c1
(A) < 6.00

* * *

Tested on: PCGs of rat cerebellum
test: Proliferation of granule cell precursors (PCGs) of rat cerebellum induced by SAG, 3H-thymidine incorporation
Assay type: cell-based
condition-summary: proliferation induced by SAG (0.01 μM), 3H-thymidine incorporation; read-out: IC50 ± SEM, PCGs of rat cerebellum (3)
measured-parameter: pIC50
pIC50 is defined as minus the log10 of a concentration measured in mol/L.

(Q) Field request: pIC50 | item: COc1cc(C(=O)NC(N)=Nc2ccc(C)c(NC(=O)c3ccc(-c4ccccc4)cc3)c2)cc(OC)c1OC
(A) 8.22

* * *

Tested on: C3H10T1/2 cells
test: Differentiation of C3H10T1/2 cells induced by SAG, alkaline phosphatase (AP) activity
Assay type: cell-based, mouse
condition-summary: AP activity, differentiation induced by SAG (0.1 μM); read-out: IC50 ± SEM, C3H10T1/2 cells (2)
measured-parameter: pIC50
pIC50 is a log-scale quantity: -log10 of the concentration expressed in molar.

(Q) Reported pIC50, compound COc1cc(C(=O)NC(N)=Nc2ccc(C)c(NC(=O)c3ccc(-c4ccccc4)cc3)c2)cc(OC)c1OC : ____
(A) 7.96

* * *

Test system: C3H10T1/2 cells
test: Differentiation of C3H10T1/2 cells induced by SAG, alkaline phosphatase (AP) activity
Format: cell-based, mouse
condition-summary: after induction by SAG at 0.1 μM; read-out: IC50, inhibition of alkaline phosphatase (AP) activity, differentiation of C3H10T1/2 cells
measured-parameter: pIC50
The read-out pIC50 is expressed as -log10 of concentration in moles per litre.

(Q) Form field: reported pIC50 of COc1cc(C(=O)NC(N)=Nc2ccc(C)c(NC(=O)c3ccc(-c4ccccc4)cc3)c2)cc(OC)c1OC
(A) 7.96

* * *

assayed-target: human Smoothened receptor (Homo sapiens)
Construct: expressed in transfected cells
test: Inhibition of binding of 3H-(7d) to membranes of HEK-hSmo cells
condition-summary: 0.35 nM 3H-(7d), HEK-hSmo membranes, 3 hours at 37° C.; read-out: IC50 ± SEM, binding of compound 3H-(7d)
Procedure: The binding test is carried out on membranes enriched with Smoothened receptor. Cells of the HEK-hSmo line were used for preparing these membranes. The cells are washed and recovered in iced PBS. […] The concentration of total protein in the preparation is determined by Lowry's method using BSA for preparing the standard range. […]
measured-parameter: pIC50
Here pIC50 is given on a logarithmic scale as minus log10 of the concentration in mol/L.

(Q) Hi! What's the reported pIC50 for COc1cc(C(=O)NC(=N)Nc2ccc(C)c(NC(=O)c3ccc(CCc4ccccc4)cc3)c2)cc(OC)c1OC.Cl [Compound 7d, hydrochloride] on human Smoothened receptor (Homo sapiens)?
(A) 8.82

* * *

assayed-target: human Smoothened receptor (Homo sapiens)
measured-parameter: pKd
Value format note: pKd is -log10 of concentration (mol/L); just state the number.

(Q) State the recorded pKd for this entry: COc1cc(C(=O)NC(=N)Nc2ccc(C)c(NC(=O)c3ccc(CCc4ccccc4)cc3)c2)cc(OC)c1OC.Cl [Compound 7d, hydrochloride]
(A) 9.52

* * *

Measured pIC50, listed per entry for reference.
assayed-target: UniProtKB Q99835
test: Competition with bodipy-cyclopamine (BC) binding in HEK-hSmo cells
condition-summary: bodipy-cyclopamine (5 nM), HEK-hSmo cells; read-out: IC50 ± SEM, BC binding (4)
Scale: pIC50 equals -log10([C]), with [C] in mol/L.

These solved cases illustrate the format of a correct answer.
INSERT INTO results (molecule, assayed_target, measured_parameter, obs_value) VALUES
  ('Cc1c(C(=O)Nc2ccc(N3C[C@@H](C)O[C@@H](C)C3)nc2)cccc1-c1ccc(OC(F)(F)F)cc1', 'UniProtKB Q99835', 'pIC50', 8.10),
  ('COc1cc(C(=O)NC(=N)Nc2ccc(C)c(NC(=O)c3ccc(CCc4ccccc4)cc3)c2)cc(OC)c1OC.Cl [Compound 7d, hydrochloride]', 'UniProtKB Q99835', 'pIC50', 8.10);

// next item, pIC50 requested
(Q) Item COc1cc(C(=O)NC(N)=Nc2ccc(C)c(NC(=O)c3ccc(-c4ccccc4)cc3)c2)cc(OC)c1OC has what recorded pIC50?
(A) 8.30

* * *

assayed-target: UniProtKB Q99835
measured-parameter: pKi
Note on units: pKi is unitless, being -log10 of a concentration expressed in mol/L.

INSERT INTO assay_data (molecule, measured_parameter, obs_value) VALUES
  ('COc1cc(C(=O)NC(=N)Nc2ccc(C)c(NC(=O)c3ccc(CCc4ccccc4)cc3)c2)cc(OC)c1OC.Cl [Compound 7d, hydrochloride]', 'pKi', 9.15),
  ('CNC1CCC(N(Cc2cccc(-c3ccncc3)c2)C(=O)c2sc3ccccc3c2Cl)CC1 (stereo not shown)', 'pKi', 8.62),
  ('Cc1c(C(=O)Nc2ccc(N3C[C@@H](C)O[C@@H](C)C3)nc2)cccc1-c1ccc(OC(F)(F)F)cc1', 'pKi', 8.72);

(Q) What value of measured pKi is listed for COc1cc(C(=O)NC(N)=Nc2ccc(C)c(NC(=O)c3ccc(-c4ccccc4)cc3)c2)cc(OC)c1OC ?
(A) 8.32

Reference source for all entries: patent US8981149B2
